# Tested on: MDA-MB-468 breast
# method.summary: NCI tumour cell line growth inhibition, 48 h
*1 amine or outer side, *2 acyl side, *3 side chain or, on linkers, in order; H or OH if unused. Where a SMILES comes first, the peptide text is derived from it. Bridges are numbered along the chain shown (N, C = ends). Roman numbers before positions name the chains, in order. [ ]: non-standard residue; d: D form. Actinocin(9to1) = Cc1c2oc3c(C)ccc(C(=O)[*:1])c3nc-2c(C(=O)[*:2])c(N)c1=O; NMeV = CN[CH](C(=O)O)C(C)C; Sar = CNCC(=O)O

# molecule, TGI
data = [
    ("COC12C=C/C(=C(/C(=O)OCCSc3ccnn3C)C(=O)CCCCCCCCC3(OC)C=C/C(=C(/C(=O)OCCSc4ccnn4C)C(=O)CCCCCCCC1)O3)O2", "4.13 µM"),
    ("Cc1c2oc3c(C)ccc(C(=O)OC(C)C4NC(=O)C(C(C)C)N(C)C(=O)CN(C)C(=O)C5CCCN5C(=O)C(C(C)C)NC4=O)c3nc-2c(C(=O)OC(C)C2NC(=O)C(C(C)C)N(C)C(=O)CN(C)C(=O)C3CCCN3C(=O)C(C(C)C)NC2=O)c(N)c1=O (centres undefined) (I: cyclo([Sar][NMeV]TVP) / II: cyclo([Sar][NMeV]TVP); linker I:3-II:3 via Actinocin(9to1); configuration not given here)", "0.0152 µM"),
    ("CC/C=C\\C[C@H](O)C/C=C1/C(=O)C=C[C@@H]1C/C=C\\CCCC(=O)OC(C)C", "3.06 µM"),
    ("O=P(O)(O)OCC1OC(n2cnc3c(NCc4ccco4)ncnc32)C(O)C1O (centres undefined)", "7.66 µM"),
    ("COc1cccc(Sc2ccc([N+](=O)[O-])c3no[n+]([O-])c23)c1", "7.61 µM"),
    ("CCN1C(=O)N(CC)C2SC(N/N=C/c3ccccc3F)=NC21 (centres undefined)", "24.7 µM"),
    ("COc1cc(OC)c(/C=C/C(=O)c2ccc(Nc3ncnc4ccccc34)cc2)c(OC)c1", "1.55 µM"),
    ("CC(C)(C)Nc1nc2c(OCCc3ccccc3)cccn2c1-c1ccc(Cl)cc1", "45.3 µM"),
    ("CN(C)C(=S)/N=c1\\ssc(=S)n1Cc1cccs1", "> 100 µM"),
]
